// reported z-score per item
assayed.target: Metabotropic glutamate receptor 8 (Rattus norvegicus) (UniProt P70579)
Sequence (P70579 whole entry, looked up): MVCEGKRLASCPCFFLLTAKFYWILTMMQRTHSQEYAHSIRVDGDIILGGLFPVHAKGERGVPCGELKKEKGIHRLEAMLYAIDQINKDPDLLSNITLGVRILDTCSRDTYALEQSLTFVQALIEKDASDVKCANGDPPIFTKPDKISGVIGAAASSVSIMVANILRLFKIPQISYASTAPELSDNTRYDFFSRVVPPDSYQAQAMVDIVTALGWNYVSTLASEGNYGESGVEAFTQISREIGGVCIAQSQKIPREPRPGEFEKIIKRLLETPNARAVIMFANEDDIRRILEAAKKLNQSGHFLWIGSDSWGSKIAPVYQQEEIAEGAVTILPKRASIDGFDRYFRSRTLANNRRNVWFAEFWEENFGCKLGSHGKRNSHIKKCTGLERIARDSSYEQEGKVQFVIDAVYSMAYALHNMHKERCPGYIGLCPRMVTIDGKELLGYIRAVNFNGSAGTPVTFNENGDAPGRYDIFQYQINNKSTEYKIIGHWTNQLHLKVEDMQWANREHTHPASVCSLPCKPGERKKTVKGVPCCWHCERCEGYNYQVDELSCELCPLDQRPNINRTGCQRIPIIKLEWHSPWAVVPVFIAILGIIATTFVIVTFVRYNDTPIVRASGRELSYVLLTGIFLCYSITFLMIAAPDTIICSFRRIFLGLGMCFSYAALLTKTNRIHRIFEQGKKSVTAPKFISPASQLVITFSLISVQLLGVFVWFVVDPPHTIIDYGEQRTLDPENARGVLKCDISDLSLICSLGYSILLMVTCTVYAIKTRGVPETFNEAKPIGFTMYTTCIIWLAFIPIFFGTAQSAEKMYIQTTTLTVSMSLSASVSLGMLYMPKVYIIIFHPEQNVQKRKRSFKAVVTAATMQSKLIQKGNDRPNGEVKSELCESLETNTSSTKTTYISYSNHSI
experimental.details: mGluR8 Gi/Go-coupled signaling modulation – cell-based, rat, thallium flux, HTS, primary screen (AID 488969)
test.conditions: HEK293 rat mGluR8, GIRK thallium flux, FluoZin2; at 10 µM; stronger effect = higher value; submaximal glutamate (EC20) added with thallium
Over roughly 110,000 compounds, “z-score” has its median near -0.1; the highest 2% begin near 2. Many of the other results were omitted from the sample, so the highest values are more common in it than they were. Activity calls are given as the source filed them.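 Rule for the calls: active = z-score in the third read window above 3 or below -3; inactive = the rest.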

compound: Cc1nc(NCCc2ccccc2F)c(C#N)c(C)c1[N+](=O)[O-]
z-score: 0.24
--
compound: CC1=NN2C(=N)/C(=C\c3ccc(SCc4ccccc4)o3)C(=O)N=C2S1
z-score: -0.21
--
compound: O=C(NC1CCCC1)C(c1ccccc1)N(C(=O)c1ccno1)c1ccccc1 (configuration not stated)
z-score: 0.315
--
compound: NC(=O)C1(NC(=O)[C@@H]2CC3(CC(c4cccc(NC(=O)[C@@H]5CCC(=O)N5)c4)=NO3)CN2C(=O)Cc2ccc(C(F)(F)F)cc2)CC1 (some centres not stated)
z-score: -0.279
--
compound: CO/N=C/c1ccc(Sc2ccccc2)c([N+](=O)[O-])c1
z-score: -0.0163
--
compound: CCOC(=O)CC1ON(C)C(=O)N1c1ccc([N+](=O)[O-])cc1 (configuration not stated)
z-score: 0.0464
--
compound: CCOC(=O)CSc1nnc(Cc2ccccc2)n1-c1cccc(Cl)c1
z-score: -0.436
--
compound: O=C1NC(=S)S/C1=C/c1ccc(N2CCOCC2)o1
z-score: 0.253
--
compound: Cc1nc(Nc2ccc(F)cc2)[nH]c(=O)c1CCC(C)C
z-score: -0.00139
--
compound: COc1cc(NC(=O)CN(C)S(=O)(=O)c2ccc3c(c2)CCC(=O)N3)cc(OC)c1
z-score: -0.176
--
compound: S=c1[nH]nc(-c2cccnc2)n1C1CCCCC1
z-score: 0.738
--
compound: COc1cccc(Nc2ncnc3ccccc23)c1
z-score: -0.25
--
compound: O=C(NCc1ccccn1)c1c(Cl)cccc1Cl
z-score: 0.0849
--
compound: O=C1CC(c2ccccc2)CN1S(=O)(=O)c1ccccc1 (configuration not stated)
z-score: 0.00794
--
compound: CC(C)n1c(-c2ccc(C(C)(C)C)cc2)n[nH]c1=S
z-score: 8.21 (active)
--
compound: CCCOC(=O)NC(CC)COC(=O)Nc1cc(C)ccc1C (configuration not stated)
z-score: -0.0367
--
compound: C=CCn1c(=NC(=O)c2ccco2)sc2cc(C(=O)OC)ccc21
z-score: 0.103
--
compound: COn1c(SC(C)C)nc2ccccc2c1=O
z-score: -0.948
--
compound: C=CCN(Cc1cccc(OC)c1OC)S(=O)(=O)N(C)C
z-score: -0.164
--
compound: CC(C)n1c(-c2ccccc2F)n[nH]c1=S
z-score: 0.0711
--
compound: COc1ccc(Nc2cc(C)nc3ccccc23)cc1
z-score: 2.44
--
compound: O=C1NC(=S)S/C1=C\c1ccc(SCc2ccccc2)o1
z-score: 6.47 (active)
--
compound: Cc1ccc(Nc2nc(C)c(CCC(C)C)c(=O)[nH]2)cc1
z-score: 0.22
--
compound: CC(C)(C)c1ccc(-c2n[nH]c(=S)n2C2CCCC2)cc1
z-score: 4.4 (active)
--
compound: COc1cccc(Nc2nc(NCCO)c3ccccc3n2)c1
z-score: -0.496
--
compound: CNC(=O)N1CCN(C(=O)NC)CC1
z-score: -0.168
--
compound: COC(=O)Nc1cc(C)nc2ccccc12
z-score: 0.301

* * *

assayed.target: Metabotropic glutamate receptor 8 (Rattus norvegicus)
experimental.details: mGluR8 Gi/Go-coupled signaling modulation – cell-based, rat, thallium flux, HTS, primary screen (AID 488969)
test.conditions: HEK293 rat mGluR8, GIRK thallium flux, FluoZin2; at 10 µM; stronger effect = higher value; submaximal glutamate (EC20) added with thallium
Whole data set: some 110,000 compounds, median “z-score” near -0.1, cut for the highest 2% near 2. This excerpt belongs to a sample that is enriched for the highest values.
// reported z-score per item

compound: Cc1cc(Nc2ccccc2)n(-c2ccccc2)n1
z-score: 0.00239

compound: O=C(COc1ccc(Cl)cc1Cl)Nc1noc2ccccc12
z-score: 12.9

compound: O=C(CCc1nc(-c2ccc(Cl)cc2)no1)OCc1ccc(Br)cc1
z-score: -0.0119

compound: CCCCC(=O)NC(=S)NNC(=O)CC#N
z-score: -0.265

compound: Cc1cc(NC(=O)COc2ccccc2)n(-c2ccccc2)n1
z-score: -0.119

compound: O=C(COc1ccc(Cl)cc1Cl)Nc1ccccn1
z-score: 1.52

compound: COc1cc(Cl)c(C)cc1NC(=O)CSC
z-score: 0.0277

compound: O=C(/C=C/c1ccc(Cl)cc1)NC(=S)NN1CCCCC1c1cccnc1 (configuration not stated)
z-score: 2.97

compound: Cc1cc(NC(=O)Nc2ccccc2)n(-c2ccccc2)n1
z-score: 10.5

compound: CSc1ccccc1NC(=O)COc1ccc(Cl)cc1Cl
z-score: -0.15

compound: Cc1cc(NC(=O)COc2ccc(Cl)cc2Cl)n(-c2ccccc2)n1
z-score: 12.2

compound: N/C(=N\OC(=O)CSc1ccccc1)c1cccc([N+](=O)[O-])c1
z-score: -0.477

* * *

assayed.target: Metabotropic glutamate receptor 8 (Rattus norvegicus) (UniProt P70579)
experimental.details: mGluR8 Gi/Go-coupled signaling modulation – cell-based, rat, thallium flux, HTS, primary screen (AID 488969)
test.conditions: HEK293 rat mGluR8, GIRK (G protein-gated inwardly rectifying potassium channel) thallium flux, FluoZin2; at 10 µM; stronger effect = higher value; submaximal glutamate (EC20) added with thallium
In all, about 110,000 compounds were measured (“z-score”: median about -0.1, highest 2% from about 2 on). The entries come from a sample that favours the highest values as a whole.
// reported z-score per item
measured.attribute: z-score

compound: Cc1c(NC(=O)CC(=O)Nc2c(C)n(C)n(-c3ccccc3)c2=O)c(=O)n(-c2ccccc2)n1C
measured.attribute: z-score
result.value: -0.0936
--
compound: O=C(CSc1cnc2ccccc2n1)NC1CCCC1
measured.attribute: z-score
result.value: -0.494
--
compound: Cc1c(NC(=O)CCC2CCCCC2)c(=O)n(-c2ccccc2)n1C
measured.attribute: z-score
result.value: 2.9
--
compound: c1cc2c3c(cccc3c1)C(N1CCN(C3=Nc4cccc5cccc3c45)CC1)=N2
measured.attribute: z-score
result.value: -0.0313
--
compound: CCCCOc1ccc(C(=O)N/C(=C\c2cccc([N+](=O)[O-])c2)C(=O)OC(C)C)cc1
measured.attribute: z-score
result.value: 0.536
--
compound: O=[N+]([O-])c1ccc(OCCN2CCCCCC2)cc1
measured.attribute: z-score
result.value: 0.121
--
compound: CS(=O)(=O)N(CC(N)=O)c1ccc2c(c1)OCO2
measured.attribute: z-score
result.value: -0.00195
--
compound: Cc1c(NC(=O)N(C)C)c(=O)n(-c2ccccc2)n1C
measured.attribute: z-score
result.value: -0.0915
--
compound: O=C(Nn1c(SCc2ccccc2F)nc2ccsc2c1=O)c1ccccc1
measured.attribute: z-score
result.value: -0.0125
--
compound: Cc1noc(/C=C/N(C)C)c1S(=O)(=O)N1CCCC(C(=O)NCCC2=CCCCC2)C1 (configuration not stated)
measured.attribute: z-score
result.value: -0.237
--
compound: c1cc2c3c(cccc3c1)C(N1CCCCCC1)=N2
measured.attribute: z-score
result.value: 0.822
--
compound: Cc1c(NC(=O)CSc2nccn2C)c(=O)n(-c2ccccc2)n1C
measured.attribute: z-score
result.value: -0.0895
--
compound: Cc1ccc(-c2c(C)sc(NC(=O)C3C4CCC(O4)C3C(=O)O)c2C(=O)OC(C)C)cc1 (configuration not stated)
measured.attribute: z-score
result.value: 4.99
--
compound: Cc1c(NC(=O)CCC(=O)N2CCCCC2)c(=O)n(-c2ccccc2)n1C
measured.attribute: z-score
result.value: -0.244
--
compound: Cc1noc(C)c1CSc1ccccc1C(=O)Nc1nccs1
measured.attribute: z-score
result.value: 0.618
--
compound: COc1cccc(N2CCN(Cc3nc(N)nc(Nc4ccccc4OC)n3)CC2)c1
measured.attribute: z-score
result.value: -0.203
--
compound: CCCC(=O)NC(NC(=S)Nc1c(C)n(C)n(-c2ccccc2)c1=O)C(Cl)(Cl)Cl (configuration not stated)
measured.attribute: z-score
result.value: -0.165
--
compound: Cc1c(NC(=O)C2CC=CCC2C(=O)O)c(=O)n(-c2ccccc2)n1C (configuration not stated)
measured.attribute: z-score
result.value: 2.16
--
compound: Cc1ccc(N2CC(C(=O)Nc3ccncc3)CC2=O)cc1 (configuration not stated)
measured.attribute: z-score
result.value: -0.196
--
compound: CCCN1CCC(NC(=O)Nc2ccc(OC)c(OC)c2)CC1
measured.attribute: z-score
result.value: 0.00828
--
compound: CCC(=O)NC(NC(=S)Nc1c(C)n(C)n(-c2ccccc2)c1=O)C(Cl)(Cl)Cl (configuration not stated)
measured.attribute: z-score
result.value: -0.491
--
compound: CCOC(=O)c1c(C)[nH]c(C(=O)COC(=O)CNC(=O)c2ccc(Br)cc2)c1C
measured.attribute: z-score
result.value: -0.279
